This collection of values is drawn from patent US6482921B1.

system: Mycobacterium tuberculosis TN913; test: MIC agar dilution, M. tuberculosis TN913; format: cell-based
// reported MIC TN913 (SENSITIVE) for each item listed
All answers are understood in µg/mL, so give the number only.

The cases that follow already have their MIC TN913 (SENSITIVE) on record.
COMPOUND	TARGET OR TEST SYSTEM	REPORTED VALUE
CC(N)C(=O)N(C)C(C)C(NC(=O)C(Cc1ccc(C(F)(F)F)cc1)NC(=O)NC(Cc1c[nH]c2ccccc12)C(=O)O)C(=O)NCC1CC(O)C(n2ccc(=O)[nH]c2=O)O1 (stereo not drawn)	Mycobacterium tuberculosis TN913	10
CC(N)C(=O)N(C)C(C)C(NC(=O)C(Cc1ccc(F)cc1)NC(=O)NC(Cc1c[nH]c2ccccc12)C(=O)O)C(=O)NCC1CC(O)C(n2ccc(=O)[nH]c2=O)O1 (stereo not drawn)	Mycobacterium tuberculosis TN913	10
CC(N)C(=O)N(C)C(C)C(NC(=O)C(Cc1ccccc1)NC(=O)NC(Cc1ccc2ccccc2c1)C(=O)O)C(=O)NCC1CC(O)C(n2ccc(=O)[nH]c2=O)O1 (stereo not drawn)	Mycobacterium tuberculosis TN913	30

Prompt: Sample CC(C)CC(N)C(=O)N(C)C(C)C(NC(=O)C(Cc1ccccc1)NC(=O)NC(Cc1c[nH]c2ccccc12)C(=O)O)C(=O)NCC1CC(O)C(n2ccc(=O)[nH]c2=O)O1 (stereo not drawn) — what was its MIC TN913 (SENSITIVE)?
Completion: 30

Prompt: Sample CC(C)C[C@H](NC(=O)N[C@@H](Cc1c[nH]c2ccccc12)C(=O)O)C(=O)N[C@H](C(=O)NC[C@H]1C[C@@H](O)[C@H](n2ccc(=O)[nH]c2=O)O1)[C@H](C)N(C)C(=O)CN — what was its MIC TN913 (SENSITIVE)?
Completion: 30

Prompt: Sample CC(N)C(=O)N(C)C(C)C(NC(=O)C(Cc1ccccc1)NC(=O)NC(Cc1c[nH]c2ccccc12)C(=O)O)C(=O)NCC1CC(O)C(n2ccc(=O)[nH]c2=O)O1 (stereo not drawn) — what was its MIC TN913 (SENSITIVE)?
Completion: 10

Prompt: Sample CC(N)C(=O)N(C)C(C)C(NC(=O)C(Cc1ccc(F)cc1)NC(=O)NC(Cc1ccc(O)cc1)C(=O)O)C(=O)NCC1CC(O)C(n2ccc(=O)[nH]c2=O)O1 (stereo not drawn) — what was its MIC TN913 (SENSITIVE)?
Completion: 10

Prompt: Sample CC(N)C(=O)N(C)C(C)C(NC(=O)C(Cc1ccc(-c2ccccc2)cc1)NC(=O)NC(Cc1c[nH]c2ccccc12)C(=O)O)C(=O)NCC1CC(O)C(n2ccc(=O)[nH]c2=O)O1 (stereo not drawn) — what was its MIC TN913 (SENSITIVE)?
Completion: 10

###

// reported MIC Broth microdilution M. fortuitum ATCC 6841 for each item listed
tested on: Mycobacterium fortuitum ATCC 6841; experiment: MIC broth microdilution, M. fortuitum ATCC 6841; settings: 72 hours at 35° C., CAMHB
All answers are understood in µg/mL, so give the number only.

The cases that follow already have their MIC Broth microdilution M. fortuitum ATCC 6841 on record.
COMPOUND	REPORTED VALUE
CC(N)C(=O)N(C)C(C)C(NC(=O)C(CC1CCCCC1)NC(=O)NC(Cc1c[nH]c2ccccc12)C(=O)O)C(=O)NCC1CC(O)C(n2ccc(=O)[nH]c2=O)O1 (stereo not shown) [Compound 136]	128
CC(N)C(=O)N(C)C(C)C(NC(=O)C(Cc1ccc(F)cc1)NC(=O)NC(Cc1c[nH]c2ccccc12)C(=O)O)C(=O)NCC1CC(O)C(n2ccc(=O)[nH]c2=O)O1 (stereo not shown) [Compound 158]	32
CC(N)C(=O)N(C)C(C)C(NC(=O)C(Cc1ccccc1)NC(=O)NC(Cc1ccc2ccccc2c1)C(=O)O)C(=O)NCC1CC(O)C(n2ccc(=O)[nH]c2=O)O1 (stereo not shown) [Compound 133]	32

As a next step, examine the compound that follows.
Prompt: Sample CC(C(NC(=O)C(Cc1ccccc1)NC(=O)NC(Cc1c[nH]c2ccccc12)C(=O)O)C(=O)NCC1CC(O)C(n2ccc(=O)[nH]c2=O)O1)N(C)C(=O)C(N)Cc1ccccc1 (stereo not shown) [Compound 156] — what was its MIC Broth microdilution M. fortuitum ATCC 6841?
Completion: 256
